Cited source: paper PMC6407917

- tested-system: PRKD1 (Homo sapiens, UniProt Q15139)
- Sequence (Q15139 whole entry): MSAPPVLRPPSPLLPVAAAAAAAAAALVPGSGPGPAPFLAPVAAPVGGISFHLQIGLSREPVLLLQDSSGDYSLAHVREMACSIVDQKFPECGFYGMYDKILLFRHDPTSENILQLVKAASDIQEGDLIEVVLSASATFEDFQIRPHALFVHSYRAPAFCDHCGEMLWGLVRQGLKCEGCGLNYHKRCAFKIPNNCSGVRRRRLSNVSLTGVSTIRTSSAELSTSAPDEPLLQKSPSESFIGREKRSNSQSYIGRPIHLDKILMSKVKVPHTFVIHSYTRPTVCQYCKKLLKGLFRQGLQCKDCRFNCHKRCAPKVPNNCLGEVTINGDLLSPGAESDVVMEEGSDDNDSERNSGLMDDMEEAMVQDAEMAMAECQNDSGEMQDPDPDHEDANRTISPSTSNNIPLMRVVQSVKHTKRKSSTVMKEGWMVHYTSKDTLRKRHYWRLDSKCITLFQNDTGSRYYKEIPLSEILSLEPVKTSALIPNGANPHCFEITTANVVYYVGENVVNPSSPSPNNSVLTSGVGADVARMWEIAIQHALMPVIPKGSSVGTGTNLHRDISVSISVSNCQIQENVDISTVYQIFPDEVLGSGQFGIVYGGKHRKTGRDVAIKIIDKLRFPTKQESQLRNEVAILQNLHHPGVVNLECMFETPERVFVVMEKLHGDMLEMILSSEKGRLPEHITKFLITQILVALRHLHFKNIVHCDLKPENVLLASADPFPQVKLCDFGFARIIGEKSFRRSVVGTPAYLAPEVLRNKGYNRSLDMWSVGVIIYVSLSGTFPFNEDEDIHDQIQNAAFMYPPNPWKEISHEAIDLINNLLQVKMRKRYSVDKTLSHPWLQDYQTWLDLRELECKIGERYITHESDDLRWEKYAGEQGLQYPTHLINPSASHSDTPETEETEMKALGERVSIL
- assay-method-text: biochemical
- Set-up: species or system HEK293/K-562/placenta mixed human extract; Kinobeads chemoproteomic competition binding, quantified by TMT LC-MS/MS, dose response up to 20 uM
endpoint-label: IC50

1. COc1nc(N[C@H]2CC[C@H](NS(=O)(=O)CC(C)C)CC2)nc2[nH]nc(N3CCOC[C@H]3C)c12 :: ≥ 20 µM

---

- tested-system: PIK3R4 (Homo sapiens, UniProt Q99570)
- Sequence (Q99570 whole entry): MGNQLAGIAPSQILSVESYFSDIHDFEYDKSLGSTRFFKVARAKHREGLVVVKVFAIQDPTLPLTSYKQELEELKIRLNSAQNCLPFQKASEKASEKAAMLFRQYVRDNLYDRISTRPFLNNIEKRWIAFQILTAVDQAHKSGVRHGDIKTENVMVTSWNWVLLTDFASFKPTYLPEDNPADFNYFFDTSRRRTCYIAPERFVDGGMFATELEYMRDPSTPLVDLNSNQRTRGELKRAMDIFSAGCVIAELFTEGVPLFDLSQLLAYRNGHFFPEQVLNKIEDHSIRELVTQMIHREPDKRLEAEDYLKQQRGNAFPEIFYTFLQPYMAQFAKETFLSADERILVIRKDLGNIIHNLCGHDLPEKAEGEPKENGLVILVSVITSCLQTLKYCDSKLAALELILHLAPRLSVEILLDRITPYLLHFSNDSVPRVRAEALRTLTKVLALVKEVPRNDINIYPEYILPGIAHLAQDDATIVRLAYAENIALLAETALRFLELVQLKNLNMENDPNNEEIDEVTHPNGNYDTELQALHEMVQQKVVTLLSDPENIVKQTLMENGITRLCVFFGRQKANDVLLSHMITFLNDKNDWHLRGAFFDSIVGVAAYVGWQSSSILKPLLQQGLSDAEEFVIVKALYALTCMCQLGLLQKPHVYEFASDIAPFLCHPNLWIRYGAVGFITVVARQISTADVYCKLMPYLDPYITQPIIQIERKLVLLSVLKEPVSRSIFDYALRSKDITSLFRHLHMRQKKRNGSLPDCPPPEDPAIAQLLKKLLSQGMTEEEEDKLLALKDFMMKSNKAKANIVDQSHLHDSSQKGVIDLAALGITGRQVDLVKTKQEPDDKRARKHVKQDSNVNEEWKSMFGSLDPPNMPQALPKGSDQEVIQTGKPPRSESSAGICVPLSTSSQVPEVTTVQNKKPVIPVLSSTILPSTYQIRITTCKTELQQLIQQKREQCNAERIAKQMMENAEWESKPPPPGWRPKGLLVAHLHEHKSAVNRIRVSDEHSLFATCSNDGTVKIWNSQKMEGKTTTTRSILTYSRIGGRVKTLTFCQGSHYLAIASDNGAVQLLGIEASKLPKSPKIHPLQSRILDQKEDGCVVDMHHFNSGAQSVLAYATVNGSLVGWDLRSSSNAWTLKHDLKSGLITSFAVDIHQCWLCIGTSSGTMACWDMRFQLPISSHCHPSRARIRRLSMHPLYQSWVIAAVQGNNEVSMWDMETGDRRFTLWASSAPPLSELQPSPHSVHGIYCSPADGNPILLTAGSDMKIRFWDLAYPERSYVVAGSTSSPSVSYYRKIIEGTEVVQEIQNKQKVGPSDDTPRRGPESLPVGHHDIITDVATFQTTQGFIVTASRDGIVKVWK
- assay-method-text: biochemical
- Design: species or system HEK293/K-562/placenta mixed human extract; Kinobeads chemoproteomic competition binding, quantified by TMT LC-MS/MS, dose response up to 20 uM
endpoint-label: IC50

1) COc1ccccc1-c1n[nH]c2nc(N[C@H]3CC[C@H](NS(=O)(=O)CCC(F)(F)F)CC3)nc(OC)c12 [compound 31] :: ≥ 20 µM
